# MEASUREMENT_TARGET: HDAC1 (Homo sapiens, UniProt Q13547)
# Construct: Recombinant, full-length HDAC protein (BPS Biosciences) was incubated with fluorophore conjugated substrate; purchased BPS Biosciences
# Sequence (Q13547 whole entry): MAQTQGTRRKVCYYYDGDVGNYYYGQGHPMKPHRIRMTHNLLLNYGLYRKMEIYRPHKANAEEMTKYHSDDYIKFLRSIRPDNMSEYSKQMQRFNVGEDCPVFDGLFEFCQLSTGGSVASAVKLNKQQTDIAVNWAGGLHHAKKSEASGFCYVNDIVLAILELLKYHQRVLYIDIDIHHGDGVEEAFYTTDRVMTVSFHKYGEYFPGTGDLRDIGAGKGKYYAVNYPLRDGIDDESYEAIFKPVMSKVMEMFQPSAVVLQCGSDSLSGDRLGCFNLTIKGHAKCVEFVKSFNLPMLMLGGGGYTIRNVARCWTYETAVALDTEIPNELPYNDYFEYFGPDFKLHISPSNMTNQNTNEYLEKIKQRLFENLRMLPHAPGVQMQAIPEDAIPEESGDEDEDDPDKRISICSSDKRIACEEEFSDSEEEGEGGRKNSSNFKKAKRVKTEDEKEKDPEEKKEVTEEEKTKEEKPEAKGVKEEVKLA
# EXPERIMENT_DESCRIPTION: In vitro HDAC enzyme inhibition assay, HDAC1
# Format: biochemical
# ASSAY_CONDITIONS: ratio of IC50 for HDAC1 relative to that of HDAC6
# Description: In vitro Histone Deacetylase enzyme assays were performed using Class I (isoforms: HDAC1, HDAC2, HDAC3 and HDAC8), class IIa (isoforms: HDAC4, HDAC5, HDAC7 and HDAC9) and class IIb (isoform HDAC6). HDAC activities were determined in vitro with an optimized homogenous assay performed in a 384-well plate. […] Fluorescence measurements were obtained every five minutes using a multilabel plate reader and plate-stacker (Envision; Perkin-Elmer). […]

STRUCTURE_SMILES	HDAC1/HDAC6 in vitro selectivity
COc1ccc2c(c1)ncn2Cc1ccc(C(=O)NO)cc1	1378
Cc1ccc2c(c1)nc(C(F)(F)F)n2Cc1ccc(C(=O)NO)cc1	808
O=C(NO)c1ccc(Cn2c(C(F)(F)F)nc3ccccc32)cc1	1444
O=C(NO)c1ccc(Cn2nnc3cc(F)ccc32)cc1	8300
O=C(NO)c1ccc(Cn2c(=O)[nH]c3ccccc32)cc1	9665
O=C(NO)c1ccc(Cn2cnc3cc(F)ccc32)cc1	2812
O=C(NO)c1ccc(Cn2cnc3cc(Cl)ccc32)cc1	1399
O=C(NO)c1ccc(Cn2nnc3ccccc32)cc1	3996
Cc1ccc2c(c1)ncn2Cc1ccc(C(=O)NO)cc1	688
O=C(NO)c1ccc(Cn2c(=O)[nH]c3cc(Br)ccc32)cc1	508
O=C(NO)c1ccc(Cn2c(C(F)(F)F)nc3cc(Br)ccc32)cc1	541
O=C(NO)c1ccc(Cn2nnc3cc(Cl)ccc32)cc1	1712
O=C(NO)c1ccc(Cn2nnc3cc(Br)ccc32)cc1	2113
O=C(NO)c1ccc(Cn2c(=O)[nH]c3cc(C(F)(F)F)ccc32)cc1	1951
O=C(NO)c1ccc(Cn2c(C(F)(F)F)nc3cc(Cl)ccc32)cc1	343
O=C(NO)c1ccc(Cn2cnc3cc(Br)ccc32)cc1	1725
O=C(NO)c1ccc(Cn2c(=O)[nH]c3cc(Cl)ccc32)cc1	209
O=C(NO)c1ccc(Cn2c(C(F)(F)F)nc3cc(F)ccc32)cc1	812
COc1ccc2c(c1)[nH]c(=O)n2Cc1ccc(C(=O)NO)cc1	1224
Cc1ccc2c(c1)[nH]c(=O)n2Cc1ccc(C(=O)NO)cc1	4622
O=C(NO)c1ccc(Cn2cnc3ccccc32)cc1	2695
O=C(NO)c1ccc(Cn2c(=O)[nH]c3cc(F)ccc32)cc1	2749
COc1ccc2c(c1)nc(C(F)(F)F)n2Cc1ccc(C(=O)NO)cc1	629

Origin of values: patent US20150197497A1
